study_system: T1, B3GNT2 (Homo sapiens, UniProt Q9NY97)
T1 construct: The respective ORFs of candidate genes [CD274 (NM_014143), MCL1 (NM_021960), JUNB (NM_002229), and B3GNT2 (NM_006577)] were synthesized; expressed in transfected cells; host or cells: A375 melanoma cells (lentiviral ORF overexpression)
T1 sequence (Q9NY97 1-397): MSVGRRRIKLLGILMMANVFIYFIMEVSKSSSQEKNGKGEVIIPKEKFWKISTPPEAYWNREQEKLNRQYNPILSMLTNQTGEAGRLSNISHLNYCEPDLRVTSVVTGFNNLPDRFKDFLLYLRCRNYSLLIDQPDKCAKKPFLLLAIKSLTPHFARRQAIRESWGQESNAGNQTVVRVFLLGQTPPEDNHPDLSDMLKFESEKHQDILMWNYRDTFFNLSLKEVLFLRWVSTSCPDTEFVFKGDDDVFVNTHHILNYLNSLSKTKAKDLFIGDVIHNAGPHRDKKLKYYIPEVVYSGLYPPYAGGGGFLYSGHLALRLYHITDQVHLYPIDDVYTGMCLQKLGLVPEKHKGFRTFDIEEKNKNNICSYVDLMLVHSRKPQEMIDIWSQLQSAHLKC
test_summary: Co-IP of FLAG-tagged B3GNT2 followed by mass spectrometry
Assay type: cell-based
Design: unit not given here
particulars: Co-IP followed by mass spectrometry of B3GNT2; C-term tag, IgG pull-down
quantity: C-term IgG

The cases that follow already have their C-term IgG on record.
| molecule | C-term IgG |
| --- | --- |
| TIMP3 (protein) CTCSPSHPQDAFCNSDIVIRAKVVGKKLVKEGPFGTLVYTIKQMKMYRGFTKMPHVQYIHTEASESLCGLKLEVNKYQYLLTGRVYDGKMYTGLCNFVERWDQLTLSQRKGLNYRYHLGCNCKIKSCYYLPCFVTSKNECLWTDMLSNFGYPGYQSKHYACIRQKGGYCSWYRGWAPPDKSIINATDP | 0 |
| IL13RA2 (protein) DTEIKVNPPQDFEIVDPGYLGYLYLQWQPPLSLDHFKECTVEYELKYRNIGSETWKTIITKNLHYKDGFDLNKGIEAKIHTLLPWQCTNGSEVQSSWAETTYWISPQGIPETKVQDMDCVYYNWQYLLCSWKPGIGVLLDTNYNLFYWYEGLDHALQCVDYIKADGQNIGCRFPYLEASDYKDFYICVNGSSENKPIRSSYFTFQLQNIVKPLPPVYLTFTRESSCEIKLKWSIPLGPIPARCFDYEIEIREDDTTLVTATVENETYTLKTTNETRQLCFVVRSKVNIYCSDDGIWSEWSDKQCWEGEDLSKKTLLRFWLPFGFILILVIFVTGLLLRKPNTYPKMIPEFFCDT | 0 |

Next up:
stdin: GET /values?readout=C-term IgG&item= SRP14 (protein) VLLESEQFLTELTRLFQKCRTSGSVYITLKKYDGRTKPIPKKGTVEGFEPADNKCLLRATDGKKKISTVVSSKEVNKFQMAYSNLLRANMDGLKKRDKKNKTKKTKAAAAAAAAAPAAAATAPTTAATTAATAAQ
stdout: 0
